# Test system: human neutrophils
# assay: In vitro respiratory burst (superoxide) assay
# Assay type: cell-based
# measurement_setup: Neutrophil, concentration required to reduce superoxide production to 50% of control, PMA-triggered respiratory burst, WST-1 dye reduction, compound 30 min before, read-out: Al50 (the source's name)
A collection of compounds and their measured pIC50
Lab note — pIC50 values are minus log10 of concentrations in M.

Reference set (8 entries):
O=C(O)c1ccc2c(n1)C(=O)C1=C(NC=CS1(=O)=O)C2=O | 7.15
O=C1C2=C(NCCS2(=O)=O)C(=O)c2ncccc21 | 4.52
O=C(O)c1ccc2c(n1)C(=O)C1=C(C2=O)S(=O)(=O)CCN1 | 6.85
CCCCCCCCOC(=O)c1ccc2c(n1)C(=O)C1=C(C2=O)S(=O)(=O)CCN1 | 5.04
COC(O)c1ccc2c(n1)C(=O)C1=C(C2=O)S(=O)(=O)CCN1 (stereo not drawn) | 4.89
O=C(/C=C/c1ccc2c(n1)C(=O)C1=C(C2=O)S(=O)(=O)CCN1)c1ccccc1 | 5.11
Cc1ccc2c(n1)C(=O)C1=C(C2=O)S(=O)(=O)C=CN1 | 5.05
CN(C)C(=O)c1ccc2c(n1)C(=O)C1=C(C2=O)S(=O)(=O)CCN1 | 4.10

Exam item: Look up pIC50: `N#Cc1ccc2c(n1)C(=O)C1=C(C2=O)S(=O)(=O)CCN1`
Marked response: 5.80

Exam item: Thanks! And `O=C(O)c1ccc2c(n1)C(=O)C1=C(C2=O)S(=O)(=O)C=CN1` ?
Marked response: 7.05

Exam item: Please give the result for `O=Cc1ccc2c(n1)C(=O)C1=C(C2=O)S(=O)(=O)CCN1` too.
Marked response: 5.38

###

Below, each entry is listed alongside its reported IC50.
# Tested on: human neutrophils
# assay: In vitro respiratory burst (superoxide) assay
# Format: cell-based
# measurement_setup: Neutrophil, concentration required to reduce superoxide production to 50% of control, PMA-triggered respiratory burst, WST-1 dye reduction, compound 30 min before, read-out: Al50 (the source's name)
Your answer should be a plain number; it is taken to be in µM.

For orientation, consider the following solved cases.
COC(=O)c1ccc2c(n1)C(=O)C1=C(C2=O)S(=O)(=O)CCN1 [Compound 3] | 1.12
N#Cc1ccc2c(O)c3c(c(O)c2n1)NCCS3(=O)=O [Compound 6] | 4.85

Now let's try a different one.
Exam item: # get_value(readout='IC50', item= CN(C)C(=O)c1ccc2c(n1)C(=O)C1=C(NCCS1(=O)=O)C2=O [Compound 13] )
Marked response: 149

###

Documented IC50 across a set of compounds
# Tested on: human neutrophils
# assay: In vitro respiratory burst (superoxide) assay
# Assay type: cell-based
# measurement_setup: Neutrophil, concentration required to reduce superoxide production to 50% of control, PMA-triggered respiratory burst, WST-1 dye reduction, compound 30 min before, read-out: Al50 (the source's name)

O=C1C2=C(C(=O)c3ccccc31)S(=O)(=O)CCN2 | > 106 µM
Cc1ccc2c(n1)C(=O)C1=C(NCCS1(=O)=O)C2=O | > 90 µM
O=C1C2=C(NCCS2(=O)=O)C(=O)c2nc(C3OCCO3)ccc21 | > 74 µM

Exam item: Need IC50 of `Cc1ccc2c(n1)C(=O)C1=C(C2=O)S(=O)(=O)CCN1` , thanks.
Marked response: > 90 µM
